Cited source for all entries: ChEMBL document CHEMBL3044638

- study_system: Fatty acid hydroperoxide lyase, chloroplastic (Solanum lycopersicum)
- Sequence (K4CF70 whole entry): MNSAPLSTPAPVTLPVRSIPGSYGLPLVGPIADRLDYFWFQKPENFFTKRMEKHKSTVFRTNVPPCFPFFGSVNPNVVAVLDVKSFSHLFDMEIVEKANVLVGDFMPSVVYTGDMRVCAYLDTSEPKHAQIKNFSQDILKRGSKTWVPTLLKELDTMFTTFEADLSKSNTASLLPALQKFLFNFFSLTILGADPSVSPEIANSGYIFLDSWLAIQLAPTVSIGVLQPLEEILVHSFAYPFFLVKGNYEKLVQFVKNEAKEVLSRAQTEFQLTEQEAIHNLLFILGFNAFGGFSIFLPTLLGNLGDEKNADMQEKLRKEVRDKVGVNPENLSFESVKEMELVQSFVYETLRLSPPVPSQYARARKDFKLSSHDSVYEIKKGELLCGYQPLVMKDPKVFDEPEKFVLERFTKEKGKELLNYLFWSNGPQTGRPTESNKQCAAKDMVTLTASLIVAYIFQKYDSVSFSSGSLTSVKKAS
- assay_method_text: Inhibition of recombinant Solanum lycopersicum (tomato) fatty acid 13-hydroperoxide lyase using (13S)-HPOT substrate by spectrophotometry
pIC50: −log10 of the molar value.
measured_metric: pIC50

Please review the following examples before continuing.
Clc1cccc(COC(Cn2ccnc2)c2ccc(Cl)cc2Cl)c1 (stereo not drawn) :: < 4.00
Clc1ccc(C(Cn2ccnc2)OCc2cccc(Cl)c2Cl)c(Cl)c1 (stereo not drawn) :: 4.34
Clc1ccc(C(Cn2ccnc2)OCc2ccccc2)c(Cl)c1 (stereo not drawn) :: 4.41

Consider the additional molecule presented here.
For Clc1ccc(COC(Cn2ccnc2)c2ccc(Cl)cc2Cl)c(Cl)c1 (stereo not drawn) [MICONAZOLE] , what is its reported pIC50? 4.19
